Target: T1, EGFR Fc (human, UniProt P00533 25-645)
T1 construct: also called EGFR-hFc; recombinant human EGFR-Fc
Experiment: ELISA, EGFR Fc coated, VHH at 10 nM
measurement-type: OD450

Look over these answered cases.
>  <binder>
pgEG-SX9 (VHH, not shown: small tags and cut ends) VHH: QVQLVESGGGLVQAGGSLRLSCAASVSGSALSNMAWYRQRPGNQRELVAHITFDNFTNYADSVKGRFTISRDNVKNTVDLQMSSLKPEDTAVYYCNARHFFGDNYWGKGTLVTVSS

>  <OD450>
2.4

$$$$
>  <binder>
pgEG-SX3 (VHH, not shown: small tags and cut ends) VHH: QVQLVESGGGLVQAGGSLRLSCVVYGSIFASTTMGWYRQAPGKQRELVATVYQSGTSVYADSVKGRFTASRDNAKKTVYLQMNSLKPEDTAVYYCHPRATDYWGRGTQVTVSS

>  <OD450>
0.994

$$$$

P = pgEG-SX40 (VHH, not shown: small tags and cut ends) VHH: QVQLVESGGGLVQAGGSLRLSCTGSGIRFSFYTLGWYRQAPGKQRELVAEIYSSDNAKYEDSVKGRFAISRDNAKNSVSLQMNSLKPEDTAVYYCNVRATDYWGPGTQVTVSS
Q = pgEG-SX57 (VHH, not shown: small tags and cut ends) VHH: QVQLVESGGGLVQAGGSLRLSCAGARSIFSIKPMTWYRQAPGKERELVAWFTSGDSPNYADSVKGRFTISRDSAKNTVYLQMNNLKPEDTAVYYCNAVPPLGRWGQGTLVTVSS
## Input Lab log: flag the item ( P or Q ) with the smaller OD450 figure. Select an item and report its label.
## Output P
(P: 0.715, Q: 2.54)
